- assay_procedure: qHTS of pediatric cancer cell lines to identify multiple opportunities for drug repurposing: Primary screen for Rh30 cells (AID 1347107); note: nearly all actives have a fitted effect of over 75% in size
- assay_context: Rh30 rhabdomyosarcoma viability, CellTiter-Glo luminescence, 48 h; series mostly up to 46 µM
- Procedure: Drug repurposing or repositioning has been offered as a strategy for drug development in oncology programs. […] [1] Shen, M et al. Quantitative high-throughput phenotypic screening of pediatric cancer cell lines identifies multiple opportunities for drug repurposing. […] Cells were assayed in growth media at a density of 500-1,000 cells/well. […] After a 15 min incubation at room temperature, samples were analyzed for luminescence intensity using a ViewLux High-throughput CCD imager equipped with clear filters.
Records with an inconclusive call do not appear. Active and inactive are the calls of the source. Calls come from the whole dose curve; as a rule, active = well fitted cell-killing curve with a large enough effect; inconclusive = small, poorly fitted or top-dose-only effect; inactive = no such curve, though single readings can be large or run the other way.
Please state which outcome applies, choosing from label 1 = active, label 0 = inactive

Examples from the recorded data:
[[record]]
compound = "CN[C@@H](C)C(=O)N[C@H]1CN(C(=O)CC(C)C)CC[C@H]2CC[C@@H](C(=O)NC(c3ccccc3)c3ccccc3)N2C1=O"
label = "label 0"

[[record]]
compound = "CN(C[C@@H]1COCCO1)S(=O)(=O)Nc1ccc2ccc3ncc(-c4cnn(C)c4)cc3c(=O)c2c1"
label = "label 0"


# input Answer briefly: the call reported for CC(C)OC(=O)C(C)(C)Oc1ccc(C(=O)c2ccc(Cl)cc2)cc1 in this assay.
# output label 0

# input Answer briefly: the call reported for Cc1ccc(C(=O)Nc2cccc(C(F)(F)F)c2)cc1Nc1nc(-c2cccnc2)nc2c1cnn2C in this assay.
# output label 1

# input Answer briefly: the call reported for CC(C)NCC(O)COc1cccc2[nH]ccc12 (stereo not given) in this assay.
# output label 0

# input Answer briefly: the call reported for COc1ccc(-c2cc(=O)c3c(O)cc(O)cc3o2)cc1O in this assay.
# output label 0

# input Answer briefly: the call reported for O=c1c(-c2ccc(O)cc2)coc2cc(O[C@@H]3O[C@H](CO)[C@H](O)[C@H](O)[C@H]3O)ccc12 in this assay.
# output label 0

# input Answer briefly: the call reported for CO[C@H]1C(=O)[C@]2(C)[C@@H](OC)C[C@H]3OC[C@@]3(OC(C)=O)[C@H]2[C@H](OC(=O)c2ccccc2)[C@]2(O)C[C@H](OC(=O)[C@H](O)[C@@H](NC(=O)OC(C)(C)C)c3ccccc3)C(C)=C1C2(C)C in this assay.
# output label 0

# input Answer briefly: the call reported for CC[C@@]1(O)C[C@H](O[C@H]2C[C@H](N(C)C)[C@H](O[C@H]3C[C@H](O)[C@H](O[C@H]4CCC(=O)[C@H](C)O4)[C@H](C)O3)[C@H](C)O2)c2c(cc3c(c2O)C(=O)c2c(O)cccc2C3=O)[C@@H]1C(=O)OC in this assay.
# output label 0

# input Answer briefly: the call reported for CCC(CC)[C@H](NC(C)=O)[C@@H]1[C@H](O)[C@@H](C(=O)O)C[C@@H]1N=C(N)N in this assay.
# output label 0

# input Answer briefly: the call reported for CO[C@H]1C[C@@H]2CC[C@@H](C)[C@@](O)(O2)C(=O)C(=O)N2CCCC[C@@H]2C(=O)O[C@H]([C@H](C)C[C@@H]2CC[C@H](OCCO)[C@H](OC)C2)CC(=O)[C@H](C)C=C(C)[C@@H](O)[C@@H](OC)C(=O)[C@H](C)C[C@H](C)C=CC=CC=C1C in this assay.
# output label 0

Taken from PubChem BioAssay (NCATS).
